tgt: Neutrophil elastase (Homo sapiens, UniProt P08246)
experimental-details: Component deacylation rate constant for interaction with human leukocyte elastase
Sorting guide: entries reporting koff beneath 0.0008 s⁻¹ go in the MET pile, the rest go in the NOT MET pile.

INSERT INTO assay_data (sample_smiles, category_label) VALUES
  ('CCCCNc1nc2cccc(CC)c2c(=O)o1', 'MET'),
  ('CC(C)CN(CC(C)C)c1nc2ccccc2c(=O)o1', 'NOT MET'),
  ('CCCc1cc(N(C)C)cc2nc(NC(C)C)oc(=O)c12', 'MET'),
  ('CSc1nc2cccc(C)c2c(=O)o1', 'MET'),
  ('CCSc1nc2cccc(C)c2c(=O)o1', 'NOT MET');

====

Quick reference: pKi of the listed items.
tgt: Neutrophil elastase (Homo sapiens)
experimental-details: Component deacylation rate constant for interaction with human leukocyte elastase
pKi: −log10 of the molar value.
measure: pKi

INSERT INTO measurements (compound, tgt, test_result) VALUES
  ('CCCC(C)Nc1nc2cccc(C)c2c(=O)o1 (stereo not drawn)', 'Neutrophil elastase (Homo sapiens)', 6.10),
  ('CCC(CC)Nc1nc2cccc(C)c2c(=O)o1', 'Neutrophil elastase (Homo sapiens)', 6.10),
  ('Cc1cc(C)c2c(=O)oc(NC(C)C)nc2c1', 'Neutrophil elastase (Homo sapiens)', 8.20);

====

tgt: Neutrophil elastase (Homo sapiens)
Sequence (P08246 whole entry): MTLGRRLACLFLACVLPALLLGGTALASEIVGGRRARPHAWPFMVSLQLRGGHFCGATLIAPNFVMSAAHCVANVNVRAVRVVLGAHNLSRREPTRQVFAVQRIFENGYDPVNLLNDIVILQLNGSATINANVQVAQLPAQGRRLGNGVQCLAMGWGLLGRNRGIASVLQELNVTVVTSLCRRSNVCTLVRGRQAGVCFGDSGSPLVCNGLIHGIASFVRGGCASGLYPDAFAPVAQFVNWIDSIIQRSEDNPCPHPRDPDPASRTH
experimental-details: Component deacylation rate constant for interaction with human leukocyte elastase
experimental-setup: read-out: kon (M-1-s-1)
measure: kon (M⁻¹ s⁻¹)

INSERT INTO results (molecule, measure, test_result) VALUES
  ('Cc1cc(N(C)C)cc2nc(NC(C)C)oc(=O)c12', 'kon', 102),
  ('NC(=O)[C@H](Cc1ccccc1)Nc1nc2ccccc2c(=O)o1', 'kon', 1200),
  ('CC(C)(C)c1nc2ccccc2c(=O)o1', 'kon', 10000),
  ('CCCc1cccc2nc(OCC)oc(=O)c12', 'kon', 309000),
  ('Cc1cc(N)cc2nc(NC(C)C)oc(=O)c12', 'kon', 229),
  ('CCCNc1nc2cccc(C)c2c(=O)o1', 'kon', 56200),
  ('CCCC(C)Nc1nc2cccc(C)c2c(=O)o1 (configuration not stated)', 'kon', 5010),
  ('CCSc1nc2cccc(C)c2c(=O)o1', 'kon', '1.51e+06'),
  ('COc1cc2nc(SCc3ccccc3)oc(=O)c2cc1OC', 'kon', 5750),
  ('CCCc1cc(N(C)C)cc2nc(NC(C)C)oc(=O)c12', 'kon', 646),
  ('NC(=O)[C@H](Cc1ccccc1)NC(=O)[C@@H]1CCCN1c1nc2ccccc2c(=O)o1', 'kon', 14400),
  ('CCSc1nc2ccc(NC(C)=O)cc2c(=O)o1', 'kon', 10000);

Measured values drawn from BindingDB's records for doi:10.1021/jm00164a002 for this set.
